The reported measurements were obtained from patent US20070202552A1.

The reader will find reported pIC50 values listed item by item below.
# target.or.system: T1, human HER-2 extracellular domain (HER-2 ECD) (human, UniProt P04626 23-646)
# T1 construct: range 23-646; also called erbB2; HER2 protein
# assay: competitive Fab-phage ELISA
pIC50 is a log-scale quantity: -log10 of the concentration expressed in molar.

binder | pIC50
B24 (Fab, V domains shown) VH: EVQLVESGGGLVQPGGSLRLSCAASGFSISYSYIHWVRQAPGKGLEWVASIYPYSGYTSYADSVKGRFTISADTSKNTAYLQMNSLRAEDTAVYYCARWWSSALDYWGQGTLVTVSS VL: DIQMTQSPSSLSASVGDRVTITCRASQDVNTAVAWYQQKPGKAPKLLIYSASSLYSGVPSRFSGSRSGTDFTLTISSLQPEDFATYYCQQSYYSPSTFGQGTKVEIK | 8.69
B13 (Fab, V domains shown) VH: EVQLVESGGGLVQPGGSLRLSCAASGFSIYYSYIHWVRQAPGKGLEWVASIYPSSGYTSYADSVKGRFTISADTSKNTAYLQMNSLRAEDTAVYYCARWWSSAFDYWGQGTLVTVSS VL: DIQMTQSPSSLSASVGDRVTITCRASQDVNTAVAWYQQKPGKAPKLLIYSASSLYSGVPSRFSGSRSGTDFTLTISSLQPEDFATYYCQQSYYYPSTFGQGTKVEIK | 8.96

# input For the binder B18 (Fab, V domains shown) VH: EVQLVESGGGLVQPGGSLRLSCAASGFSISSSYIHWVRQAPGKGLEWVASIYPYSGYTSYADSVKGRFTISADTSKNTAYLQMNSLRAEDTAVYYCARWWSSAFDYWGQGTLVTVSS VL: DIQMTQSPSSLSASVGDRVTITCRASQDVNTAVAWYQQKPGKAPKLLIYSASSLYSGVPSRFSGSRSGTDFTLTISSLQPEDFATYYCQQYYYSPSTFGQGTKVEIK , report pIC50.
# output 9.03
